The reader will find reported wt-AR DHT, peptide-AR interaction in MM2H assay values listed item by item below.
- Study target: wt-AR (Homo sapiens)
- Construct: expressed in transfected cells; host or cells: PC-3
- Sequence (P10275 1-920): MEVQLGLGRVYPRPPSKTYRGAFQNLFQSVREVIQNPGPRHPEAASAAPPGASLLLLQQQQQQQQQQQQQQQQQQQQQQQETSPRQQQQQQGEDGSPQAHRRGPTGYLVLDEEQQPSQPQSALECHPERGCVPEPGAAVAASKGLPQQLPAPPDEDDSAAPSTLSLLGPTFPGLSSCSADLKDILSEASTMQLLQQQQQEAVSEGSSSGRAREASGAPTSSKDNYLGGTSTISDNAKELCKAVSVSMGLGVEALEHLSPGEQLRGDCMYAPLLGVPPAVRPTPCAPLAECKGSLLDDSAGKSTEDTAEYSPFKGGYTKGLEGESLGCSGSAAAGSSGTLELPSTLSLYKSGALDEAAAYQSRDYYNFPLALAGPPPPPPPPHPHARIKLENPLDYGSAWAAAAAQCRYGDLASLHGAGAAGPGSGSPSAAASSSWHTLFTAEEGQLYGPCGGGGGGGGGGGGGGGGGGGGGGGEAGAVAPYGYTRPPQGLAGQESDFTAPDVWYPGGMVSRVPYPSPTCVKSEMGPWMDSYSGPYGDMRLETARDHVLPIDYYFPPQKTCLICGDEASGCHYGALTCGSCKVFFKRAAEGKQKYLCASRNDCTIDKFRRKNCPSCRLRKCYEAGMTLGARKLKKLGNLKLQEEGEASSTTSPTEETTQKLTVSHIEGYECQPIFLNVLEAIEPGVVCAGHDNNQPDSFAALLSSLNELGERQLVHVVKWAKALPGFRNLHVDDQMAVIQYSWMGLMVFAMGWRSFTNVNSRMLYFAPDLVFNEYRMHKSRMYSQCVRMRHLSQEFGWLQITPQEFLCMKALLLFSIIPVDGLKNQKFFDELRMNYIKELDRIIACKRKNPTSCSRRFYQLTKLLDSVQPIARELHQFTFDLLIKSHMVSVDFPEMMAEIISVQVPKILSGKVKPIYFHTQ
- Assay comment: mammalian two-hybrid (MM2H) assay, peptide interaction with wt-AR
- Format: cell-based
- Run conditions: PC-3 cells; DHT = 10 nM; Gal-4 = 1
- Text: Using the phage display technique, we observed enrichment of FxxFY motif-containing peptides in CDX-W741L AR LBD screening. Peptide-AR interactions were further validated with the mammalian two-hybrid assay. […] The majority of these peptides additionally interacted with W741L-AR in the presence of bicalutamide. Protein database searches led to the identification of receptor-interacting protein kinase-1 (RIPK1) as a FxxFY motif-containing protein (^285FRPFY^289). […]
Ends that are not written are not given here.
Assay endpoint: wt-AR DHT, peptide-AR interaction in MM2H assay

Substance	Observed
CA-10-FY: phage display screened peptide EHSM-FHSFY-VQG (EHSMFHSFYVQG; also: fused to Gal4 DNA-binding domain, end not given here)	277
C315-FY: phage display screened peptide APSLNR-FATFY-H (APSLNRFATFYH; also: fused to Gal4 DNA-binding domain, end not given here)	6
RIP-p: short peptide of novel AR coregulator candidate RIPK1, GIEEK-FRPFY-LSQLE (GIEEKFRPFYLSQLE; also: fused to Gal4 DNA-binding domain (not in chain))	159
#3-18: positive control peptide NTNA-FSRLF-YPS (NTNAFSRLFYPS; also: fused to Gal4 DNA-binding domain, end not given here) [reference compound]	590
CON-1: negative control peptide MYKP-HNHHQ-TSS (MYKPHNHHQTSS; also: fused to Gal4 DNA-binding domain (not in chain)) [reference compound]	1
C411-FY: phage display screened peptide NDTPVK-FAHFY-H (NDTPVKFAHFYH; also: fused to Gal4 DNA-binding domain, end not given here)	3
C412-FY: phage display screened peptide APSDTY-FQRFY-R (APSDTYFQRFYR; also: fused to Gal4 DNA-binding domain, end not given here)	6
C1-FY: phage display screened peptide SYT-FNQFY-YSTA (SYTFNQFYYSTA; also: fused to Gal4 DNA-binding domain, end not given here)	680
